Some compounds, each annotated with its measured pIC50.
Target: cyclin D1-cdk4 (Homo sapiens, UniProt P11802)
Sequence (P11802 whole entry): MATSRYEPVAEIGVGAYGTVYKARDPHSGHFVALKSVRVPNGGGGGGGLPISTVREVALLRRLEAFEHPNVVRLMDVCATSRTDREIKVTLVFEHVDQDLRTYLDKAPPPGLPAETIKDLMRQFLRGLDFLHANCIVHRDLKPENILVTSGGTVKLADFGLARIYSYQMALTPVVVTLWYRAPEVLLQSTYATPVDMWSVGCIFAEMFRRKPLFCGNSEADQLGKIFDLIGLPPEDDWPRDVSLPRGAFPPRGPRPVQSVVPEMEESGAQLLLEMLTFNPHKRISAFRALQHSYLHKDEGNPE
Sequence (P24385 whole entry partner): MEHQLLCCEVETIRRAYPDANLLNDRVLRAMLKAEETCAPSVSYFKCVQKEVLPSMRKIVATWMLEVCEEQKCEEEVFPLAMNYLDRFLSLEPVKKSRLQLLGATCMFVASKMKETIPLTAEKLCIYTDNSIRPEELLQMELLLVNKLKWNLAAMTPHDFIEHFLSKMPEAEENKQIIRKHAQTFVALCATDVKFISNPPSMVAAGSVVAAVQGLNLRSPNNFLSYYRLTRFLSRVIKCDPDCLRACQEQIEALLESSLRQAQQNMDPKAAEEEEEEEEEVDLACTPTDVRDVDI
Assay: Assay of Cyclin D1-cdk4 Kinase Activity with the ING Peptide as Substrate
Format: biochemical
Conditions: ING peptide 200 uM as substrate, 300 uM ATP, 60 minutes at room temperature
Experimental: Assay of Cyclin D1-cdk4 Kinase Activity with the ING Peptide as Substrate The cyclin D1-cdk4 kinase activity of a compound was assayed by preparing a 100 ul reaction at the following concentrations: 35 mM Hepes pH 7.0, 10 mM MgCl2, 300 uM ATP, 200 uM ING peptide, 1.0 uCi of γ-^33P-ATP, 4.34 ug of cyclin D-cdk4 enzyme, 4% DMSO, and various concentrations of inhibitor. […]
pIC50: −log10 of the molar value.
Measured property: pIC50

* O=C1NC(=O)c2c1c1c3ccccc3[nH]c1c1c2c2cccc3c2n1CC(CO)C3 (stereo not shown) | 6.90
* CC1Cn2c3c(cccc3c3c4c(c5c6ccccc6[nH]c5c32)C(=O)NC4=O)CN1C(=O)[C@H](C)N (stereo partly shown) [drawing 217] | 6.57
* CC1(C)CCn2c3c1cc(F)cc3c1c3c(c4c5ccccc5[nH]c4c12)C(=O)NC3=O [drawing 218] | 6.33
* CC1(C)Cc2cccc3c4c5c(c6c7ccc(CN)cc7[nH]c6c4n(c23)C1)C(=O)NC5=O [drawing 219] | 6.76

====

Biological target: cyclin D1-cdk4 (Homo sapiens, UniProt P11802)
Test: Assay of Cyclin D1-cdk4 Kinase Activity with the Rb21 Protein as Substrate
Format: biochemical
Conditions: Rb21 protein 5 ug as substrate, 30 uM ATP, 60 minutes at room temperature
Description: Assay of Cyclin D1-cdk4 Kinase Activity with the Rb21 Protein as Substrate The cyclin D1-cdk4 kinase activity of a compound was assayed by preparing a 100 ul reaction at the following concentrations: 20 mM Hepes pH 7.0, 10 mM MgCl2, 30 uM ATP, 5 ug of Rb21 protein (Santa Cruz Biotech, Catalog #sc-4112), 1.0 uCi of γ-^33P-ATP, 1.09 ug of cyclin D-cdk4 enzyme, 4% DMSO, and various concentrations of inhibitor. […]
pIC50: −log10 of the molar value.
Parameter threshold = 7. Response is fulfilled when pIC50 meets or exceeds it, else not fulfilled.

• CC1Cn2c3c(cccc3c3c4c(c5c6ccccc6[nH]c5c32)C(=O)NC4=O)CN1C(=O)[C@H](C)N (stereo partly drawn) [drawing 233] = not fulfilled
• CC1(C)CCn2c3c1cc(F)cc3c1c3c(c4c5ccccc5[nH]c4c12)C(=O)NC3=O [drawing 234] = not fulfilled
• CN1Cc2cccc3c4c5c(c6c7ccccc7[nH]c6c4n(c23)C1)C(=O)NC5=O [drawing 237] = fulfilled
• O=C1NC(=O)C(c2cn3c4c(cccc24)CC(CO)C3)=C1c1c[nH]c2ccccc12 (stereo not drawn) [drawing 239] = not fulfilled
• O=C1NC(=O)C(c2cn3c4c(cccc24)CCC3)=C1c1c[nH]c2ccccc12 [drawing 238] = not fulfilled
• CC1(C)Cc2cccc3c4c5c(c6c7ccc(CN)cc7[nH]c6c4n(c23)C1)C(=O)NC5=O [drawing 235] = fulfilled
• O=C1NC(=O)c2c1c1c3ccc(CN4CCCC4)cc3[nH]c1c1c2c2cccc3c2n1CCC3 [drawing 236] = fulfilled

====

Molecular target: cyclin D1-cdk4 (Homo sapiens)
Assay: Assay of Cyclin D1-cdk4 Kinase Activity with the ING Peptide as Substrate
Format: biochemical
Settings: ING peptide 200 uM as substrate, 300 uM ATP, 60 minutes at room temperature
pIC50: −log10 of the molar value.
Some compounds, each annotated with its measured pIC50.
Measured property: pIC50

• O=C1NC(=O)C(c2cn3c4c(cccc24)CCC3CO)=C1c1c[nH]c2ccccc12 (stereo not drawn) = 6.82
• CC(C)(C)OC[C@H]1Cn2c3c(cccc3c3c4c(c5c6ccccc6[nH]c5c32)C(=O)NC4=O)CN1 [drawing 213] = 6.93
• CC1(C)Cc2cccc3c(C4=C(c5c[nH]c6cc(CN)ccc56)C(=O)NC4=O)cn(c23)C1 = 6.10
